- experimental system: SpSla1-D1-D2
- experiment description: SPOT peptide array binding signal intensity (averaged, normalized) (arbitrary units (background-subtracted, floor 0; scale differs between SH3 domains)); higher = stronger binding of the SH3 domain to the peptide
Can you tell me SPOT peptide array binding signal intensity for the items I'm about to list?

GPPPPLPPPLFPSSS | ≤ 0

Lab note: each binder below needs its SPOT peptide array binding signal intensity filled in.
1. MPAPPPPPPPPPGAF
2. KTKQQKPAIPQKKSF
3. RTRRRPPPPPIPSTQ
4. KNPRRQLQIPRQQPS
5. RRARRQMGIPTISQV
6. DKSRPPRPPPKPLHL

["≤ 0", 3, 907, 3.5, 24.2, "≤ 0"]
